measured on: purified STEP46 enzyme (Homo sapiens, UniProt P54829)
Sequence (P54829 whole entry): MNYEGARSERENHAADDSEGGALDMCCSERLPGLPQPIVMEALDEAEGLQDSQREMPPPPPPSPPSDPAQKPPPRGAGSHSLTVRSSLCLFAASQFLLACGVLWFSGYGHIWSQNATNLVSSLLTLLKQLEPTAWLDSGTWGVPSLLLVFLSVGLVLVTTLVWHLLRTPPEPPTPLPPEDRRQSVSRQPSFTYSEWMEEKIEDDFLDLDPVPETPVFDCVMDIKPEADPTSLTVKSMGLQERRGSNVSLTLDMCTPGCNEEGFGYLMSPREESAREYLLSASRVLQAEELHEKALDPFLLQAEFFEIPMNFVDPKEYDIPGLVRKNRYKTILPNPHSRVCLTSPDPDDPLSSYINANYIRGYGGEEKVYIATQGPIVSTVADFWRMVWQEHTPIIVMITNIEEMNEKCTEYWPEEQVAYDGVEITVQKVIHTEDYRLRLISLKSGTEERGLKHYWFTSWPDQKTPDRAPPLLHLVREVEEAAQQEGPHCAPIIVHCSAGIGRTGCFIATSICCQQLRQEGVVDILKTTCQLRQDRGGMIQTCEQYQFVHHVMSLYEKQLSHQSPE
pIC50: −log10 of the molar value.
Here, each record is paired with measured pIC50 data.

Past entries and their recorded results:
query smiles: Clc1cc(Cl)cc(Nc2nc(-c3cnccn3)nc3cc(Cl)ccc23)c1
measured on: purified STEP46 enzyme (Homo sapiens, UniProt P54829)
pIC50: 5.00 to 6.00
--
query smiles: CNc1nc(-c2cccnc2)nc2cc(-c3ccc(C(C)=O)cc3)ccc12
measured on: purified STEP46 enzyme (Homo sapiens, UniProt P54829)
pIC50: 5.00 to 6.00
--
query smiles: CN(C)c1ccc2nc(-c3ccnnc3)nc(Nc3ccccc3C(N)=O)c2c1
measured on: purified STEP46 enzyme (Homo sapiens, UniProt P54829)
pIC50: 5.00 to 6.00

Query string: API: value(readout=pIC50, system=purified STEP46 enzyme (Homo sapiens, UniProt P54829)) for record `O=C(c1ccc(-c2ccc3nc(-c4cccnc4)nc(Nc4ccc(F)c(Cl)c4)c3c2)cc1)N1CCCCC1`
Result string: 5.00 to 6.00

Query string: Kindly state the measured pIC50 obtained for `COc1ccc2nc(-c3cccnc3)nc(Nc3nc(-c4ccc(Cl)cc4)c(C)s3)c2c1` with purified STEP46 enzyme (Homo sapiens, UniProt P54829).
Result string: 5.00 to 6.00

Query string: Give recorded pIC50 with purified STEP46 enzyme (Homo sapiens, UniProt P54829) for the following compound: `N#Cc1cccc(Nc2nc(-c3cccnc3)nc3cc(-c4ccc(F)cc4)ccc23)c1`
Result string: > 6.00

Query string: purified STEP46 enzyme (Homo sapiens, UniProt P54829) / pIC50 / `CNc1nc(-c2cccnc2)nc2cc(-c3cccc(C#N)c3)ccc12` : value?
Result string: 5.00 to 6.00

Query string: Please tell me: pIC50 of `CNc1nc(-c2cccnc2)nc2cc(-c3ccc(C#N)cc3)c(C)cc12` , system purified STEP46 enzyme (Homo sapiens, UniProt P54829)?
Result string: 5.00 to 6.00

Query string: What pIC50 appears in the records for this compound with purified STEP46 enzyme (Homo sapiens, UniProt P54829)? `CNc1nc(-c2cccnc2)nc2cc(-c3ccccc3C#N)ccc12`
Result string: 5.00 to 6.00

Hey, just so you know, these numbers are from patent US9630947B2.
